Origin of the recorded values: ChEMBL document CHEMBL3507680

Test: Human HepG2 cell viability assay in 384 well format
Type: toxicity, cell-based
Design: dose 125 nL, time 70.5 hour; concentration not given beside the values
Test Parameters: HepG2 cells, read-out: Inhibition
Measured Property: cytotoxicity at 70.5 h (%)
Numbers only, in %.

Sample records with cytotoxicity at 70.5 h:
Short answer for "COCCc1noc(Cn2ccc3ncccc3c2=O)n1" : cytotoxicity at 70.5 h was -7.6

Entry "Cc1nccn1CCN(C)C(=O)c1cn(-c2ccccc2)nn1" ; cytotoxicity at 70.5 h = 33.5

Record summary for CC(C)C(=O)N1CCN(C(=O)N(C)C)CC2(CC(=O)N(C)C2)C1 (stereo not drawn) : reported cytotoxicity at 70.5 h = 37.2

// sample Cc1cnn(CC2CN(c3ncnc4[nH]ccc34)CCO2)c1 (stereo not drawn) , its cytotoxicity at 70.5 h was 1.56

Respectfully, I request cytotoxicity at 70.5 h for each entry included below.
1. COc1cc(NC(=O)Cn2ccc3sc(C)cc3c2=O)cc(OC)c1
2. Cc1nn(C)cc1-c1cc(C(=O)N2CCc3ncc(Cl)cc3C2)no1
3. CCOC1CCN(C(=O)NCc2ccc(C(=O)N(C)C(C)C)cc2)CC1
4. OC(CN1CCN(c2ncccn2)CC1)c1cccc(F)c1 (stereo not drawn)
5. Cc1occc1C(=O)N1CCOC2(CCCC2)C1
6. CCOCCCC(=O)Nc1[nH]nc(-c2ccncc2)c1C
7. O=C(Nc1ccccc1)C1=NOC2(CCCNC2)C1 (stereo not drawn)
8. CN(C)C(=O)c1cccnc1-c1ccc2c(c1)OCCO2

[-22, 0.792, -18.5, -9.46, -3.65, -9.37, 18.4, -18.6]

Quick note, cytotoxicity at 70.5 h for "CC(C)CNC(=O)Cc1cnc(-n2cccc2)s1" landed at -18.5
